Tested on: SK-MEL-5 melanoma
Experiment: NCI tumour cell line growth inhibition, 48 h
Endpoint: GI50

Record CCC[CH2][Sn]([CH2]CCC)([O]C(=O)Cc1ccc(F)cc1)[O]C(=O)Cc1ccc(F)cc1 , field GI50: 1.08 µM

Record Cn1cc(C2=C(Sc3ccccc3)C(=O)NC2=O)c2ccccc21 , field GI50: > 15.1 µM

Record Nc1nc2c(c3cnccc13)C(c1cccc(Br)c1)Cc1cnccc1-2 (centres undefined) , field GI50: 0.475 µM

Record Ic1ccc2[nH]cc(SSc3c[nH]c4ccc(I)cc34)c2c1 , field GI50: 3.18 µM

Record CCOC(=O)c1cc(C(=O)c2ccc(Cl)cc2)n2ccc(-c3cc[n+](CC(=O)c4ccc(OC)cc4)cc3)cc12 , field GI50: 1.77 µM

Record CCOC(=O)c1cc(NC(=O)c2cc(NC(=O)c3cc(NC(=O)c4c(-c5ccccc5)noc4C)cn3C)cn2C)cn1C , field GI50: > 100 µM

Record CC(=O)Nc1ccc(-c2csc(Nc3ccc(-c4csc(-c5ccccc5)n4)cc3)n2)cc1 , field GI50: 11.1 µM

Record COc1cc(/C=C/C(=O)c2cc(OC)c(OC)c(OC)c2)ccc1Oc1nc2c(c(=O)n(C)c(=O)n2C)n1C , field GI50: 1.75 µM

Record Nc1nc(-c2cccc3ccccc23)cc2ccccc12 , field GI50: 0.287 µM

* * *

Tested on: LOX IMVI melanoma
Assay: NCI tumour cell line growth inhibition, 48 h; in the data active = GI50 below about 0.43 µM; inactive = the rest
Output constraint: value belongs to YES = active, NO = inactive

Test call, this molecule: COC(=O)c1c2c(c[n+]([O-])c1C)C(=O)C=C(NCc1ccccc1)C2=O
YES

Test call, this molecule: O=c1c2cc(I)ccc2nc(-c2cccs2)n1-c1ccc(S(=O)(=O)Nc2nccs2)cc1
NO

Test call, this molecule: COc1ccc2c(CCC(c3ccccc3)c3ccccc3)c3[n+](cc2c1OC)CCc1cc2c(cc1-3)OCO2
YES

Test call, this molecule: c1cc(N2CCCC2)c2nc(-c3[nH]ncc3Nc3ncnc4[nH]ccc34)[nH]c2c1
YES

Test call, this molecule: O=C([O-])c1ccc2c(c1)-c1nc-2nc2[n-]c(nc3nc(nc4[n-]c(n1)c1ccc(C(=O)[O-])cc41)-c1ccc(C(=O)[O-])cc1-3)c1ccc(C(=O)[O-])cc21.[Gd+3].[K+]
NO

Test call, this molecule: Ic1ccc2[nH]cc(SSc3c[nH]c4ccc(I)cc34)c2c1
NO

Test call, this molecule: COc1cc2c(cc1O)N=C[C@@H]1C[C@@H](F)CN1C2=O
NO

Test call, this molecule: Cc1c(NC(=O)c2cc(C(N)=O)nc3cc(F)ccc23)c(C(F)(F)F)nn1Cc1ccc(C#N)cc1
NO

* * *

Tested on: TK-10 renal
Assay: NCI tumour cell line growth inhibition, 48 h
Endpoint: TGI

Record O=c1nc(Oc2c(F)c(F)c(F)c(F)c2F)ccn1C1OC(CO)C(O)C1O (stereo not drawn) , field TGI: > 100 µM

Record CCNC(=S)NNC(=O)c1nsc2ccccc12 , field TGI: > 100 µM

Record CC(C)(C)c1ccc(O)c(C[N+](C)(C)C)c1 , field TGI: > 100 µM

Record C/C(=N\N(C)C)C(CN1CCCCC1)C(c1ccccc1)c1c(O)c2ccccc2oc1=O (stereo not drawn) , field TGI: > 100 µM

Record COc1cc(Nc2cc(C)nc(N3CCN(c4ccnc5cc(Cl)ccc45)CC3)n2)cc(OC)c1 , field TGI: 41.3 µM

Record C=CCNC(=O)/C=C\C(=O)O , field TGI: > 100 µM

Record O=C1c2ccccc2C(=O)N1C/C=N/NS(=O)(=O)c1ccc2ccccc2c1 , field TGI: > 100 µM

Record c1cc(N2CCCC2)c2nc(-c3[nH]ncc3Nc3ncnc4[nH]ccc34)[nH]c2c1 , field TGI: 1.38 µM

Record CCN(C1=CC(=O)NC2CCCCN12)c1ccccc1 (stereo not drawn) , field TGI: > 100 µM

Record C=CCN(C(=O)OC(C)(C)C)C1=CC2C(C)=CN(S(=O)(=O)c3ccccc3)C2C(OCc2ccccc2)=C1 (stereo not drawn) , field TGI: > 100 µM

Record Cn1c(-c2ccc(/C=N/N=C/c3ccc(-c4c[n+]5ccccc5n4C)cc3)cc2)c[n+]2ccccc12 , field TGI: > 100 µM

Record COc1ccccc1N=Nc1c(-c2ccccc2)nn(C(=O)CC(=O)Nc2ccccc2Cl)c1-c1ccccc1 , field TGI: > 100 µM

Record O=C1Nc2c(Cl)cc(Cl)cc2/C1=N/N=C/c1ccccc1O , field TGI: > 100 µM

Record O=C1/C(=C/c2ccc3c(c2)CCC3)Cc2cc3c(cc21)CCC3 , field TGI: > 100 µM

Record NC(=O)NN=C1C[C@H]2CCCC[C@H]2C1 , field TGI: > 100 µM

Record CCOC(=O)c1cc(C(=O)c2ccc(Cl)cc2)n2ccc(-c3cc[n+](CC(=O)c4ccc(OC)cc4)cc3)cc12 , field TGI: 3.37 µM

Record Cc1ccnc(NS(=O)(=O)c2ccc(NC3=CC(=O)C(=O)c4ccccc43)cc2)n1 , field TGI: > 100 µM

Record O=C([O-])c1ccc2c(c1)-c1nc-2nc2[n-]c(nc3nc(nc4[n-]c(n1)c1ccc(C(=O)[O-])cc41)-c1ccc(C(=O)[O-])cc1-3)c1ccc(C(=O)[O-])cc21.[Gd+3].[K+] , field TGI: > 100 µM

Record O=c1c2ccccc2nc(/C=C(\O)c2ccccc2)n1-c1ccccc1Cl , field TGI: > 100 µM

Record COc1cc2c(cc1OC)C1C(O)C(OC)C(Br)C3(Br)CCN(C2)C13 (stereo not drawn) , field TGI: > 100 µM

Record O=c1c2sc3nc(NCCN4CCCCC4)ncc3c2ncn1-c1ccccc1 , field TGI: > 100 µM

Record CC(=O)Oc1ccc2c(c1OC(C)=O)CCC1C2=CC[C@]2(C)C(=O)CCC12 (stereo partly drawn) , field TGI: 27.7 µM

Record O=C(Cc1csc2nc(-c3ccc(Br)cc3)cn12)N/N=C/c1cc(Br)ccc1O , field TGI: 17 µM

Record CCN1C/C(=C\c2cc(OC)c(OC)c(OC)c2)C2=NN(c3ccccc3)C(c3cc(OC)c(OC)c(OC)c3)C2C1 (stereo not drawn) , field TGI: 6.14 µM

Record CCOC(=O)C=C1CCC2(CC1)OCCO2 , field TGI: > 100 µM

Record O=C(Nc1cccc(C(F)(F)F)c1)C(=O)C(C(=O)c1ccc2ccccc2c1)C1OC(=O)c2ccccc21 (stereo not drawn) , field TGI: 48 µM

Record Cc1ccc(S(=O)(=O)O/N=C2\CCC\C2=C/c2ccccc2)cc1 , field TGI: 30.4 µM

Record Cn1cc(C2=C(Sc3ccccc3)C(=O)NC2=O)c2ccccc21 , field TGI: > 20.4 µM

Source listed as PubChem BioAssay (NCI).
